Ref: paper PMC6211260

test system: colon cancer cell lines; assay: NCI five-dose testing, subpanel mean; type: cell-based; conditions: subpanel III: colon cancer
MEASUREMENT KIND: IC50 (nM)
Answers are plain numbers, in nM.

Solved cases below.
O=S(=O)(NCCNc1cc(-c2cn(-c3ccccc3)nc2-c2cccc(O)c2)ccn1)c1ccc(Br)cc1; 2290
O=S(=O)(NCCCNc1cc(-c2cn(-c3ccccc3)nc2-c2cccc(O)c2)ccn1)c1ccc(Cl)cc1; 1510

# batch size: 5; output IC50 per entry
1. COc1cccc(-c2nn(-c3ccccc3)cc2-c2ccnc(NCCCNS(=O)(=O)c3ccc(C(F)(F)F)cc3)c2)c1
2. O=S(=O)(NCCNc1cc(-c2cn(-c3ccccc3)nc2-c2cccc(O)c2)ccn1)c1ccc(F)cc1
3. O=S(=O)(NCCCNc1cc(-c2cn(-c3ccccc3)nc2-c2cccc(O)c2)ccn1)c1ccc(Br)cc1
4. CNC(=O)c1cc(Oc2ccc(NC(=O)Nc3ccc(Cl)c(C(F)(F)F)c3)cc2)ccn1 [Sorafenib, reference compound]
5. COc1cccc(-c2nn(-c3ccccc3)cc2-c2ccnc(NCCNS(=O)(=O)c3ccc(Cl)cc3)c2)c1

Completion:
1: 4910; 2: 2340; 3: 1480; 4: 2350; 5: 4080

###

test system: PC-3 prostate cancer cell line; assay: NCI five-dose testing; type: cell-based; conditions: Homo sapiens, PC-3, read-out: LD50 (lethal dose 50)
Assign LC50 (lethal concentration 50) to each entry below.

COc1cccc(-c2nn(-c3ccccc3)cc2-c2ccnc(NCCCNS(=O)(=O)c3cccc(F)c3)c2)c1; > 100 µM
COc1cccc(-c2nn(-c3ccccc3)cc2-c2ccnc(NCCCNS(=O)(=O)c3ccc(C(F)(F)F)cc3)c2)c1; > 100 µM
O=S(=O)(NCCCNc1cc(-c2cn(-c3ccccc3)nc2-c2cccc(O)c2)ccn1)c1ccc(F)cc1; 80.7 µM

Now examine the next entry.
Prompt: Reported LC50 (lethal concentration 50), compound O=S(=O)(NCCCNc1cc(-c2cn(-c3ccccc3)nc2-c2cccc(O)c2)ccn1)c1ccc(Br)cc1 : ____
Completion: > 100 µM

###

biological target: BRAF (Homo sapiens, UniProt P15056)
Sequence (P15056 whole entry): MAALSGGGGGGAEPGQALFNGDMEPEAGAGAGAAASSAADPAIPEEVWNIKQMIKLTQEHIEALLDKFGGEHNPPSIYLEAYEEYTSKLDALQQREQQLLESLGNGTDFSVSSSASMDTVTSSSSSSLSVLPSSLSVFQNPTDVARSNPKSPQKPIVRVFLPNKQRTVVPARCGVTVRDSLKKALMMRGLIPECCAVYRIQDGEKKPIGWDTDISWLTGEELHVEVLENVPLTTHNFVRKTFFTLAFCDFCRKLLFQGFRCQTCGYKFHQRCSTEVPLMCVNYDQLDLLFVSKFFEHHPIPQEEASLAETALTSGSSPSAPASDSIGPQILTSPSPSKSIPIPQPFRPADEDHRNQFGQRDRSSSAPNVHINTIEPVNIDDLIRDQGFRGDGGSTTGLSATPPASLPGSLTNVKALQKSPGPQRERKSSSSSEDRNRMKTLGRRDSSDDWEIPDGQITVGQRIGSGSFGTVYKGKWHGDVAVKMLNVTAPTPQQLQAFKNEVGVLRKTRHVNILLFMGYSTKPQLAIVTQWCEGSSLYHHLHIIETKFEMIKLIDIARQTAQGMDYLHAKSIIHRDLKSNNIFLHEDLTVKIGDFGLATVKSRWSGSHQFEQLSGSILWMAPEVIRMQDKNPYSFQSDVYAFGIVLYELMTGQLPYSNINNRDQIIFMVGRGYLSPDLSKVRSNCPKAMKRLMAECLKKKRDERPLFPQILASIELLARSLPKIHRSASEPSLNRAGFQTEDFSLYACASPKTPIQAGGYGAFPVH
MEASUREMENT KIND: IC50 (µM)
Give bare numbers, in µM.

Prompt: Report IC50 for O=S(=O)(NCCCNc1cc(-c2cn(-c3ccccc3)nc2-c2cccc(O)c2)ccn1)c1ccc(Cl)cc1 [Compound 2l] please.
Completion: 4.87

###

test system: colon cancer cell lines; test: NCI five-dose testing, subpanel mean; type: cell-based; settings: subpanel III: colon cancer
MEASUREMENT KIND: pIC50
Give bare numbers, as −log10 of the molar value.

Answered examples (3):
COc1cccc(-c2nn(-c3ccccc3)cc2-c2ccnc(NCCNS(=O)(=O)c3ccc(C(F)(F)F)cc3)c2)c1; 5.31
O=S(=O)(NCCCNc1cc(-c2cn(-c3ccccc3)nc2-c2cccc(O)c2)ccn1)c1cccc2ccccc12; 5.58
O=S(=O)(NCCNc1cc(-c2cn(-c3ccccc3)nc2-c2cccc(O)c2)ccn1)c1ccc(Cl)cc1; 5.61

--- query ---
Prompt: State the recorded pIC50 for this entry: O=S(=O)(NCCCNc1cc(-c2cn(-c3ccccc3)nc2-c2cccc(O)c2)ccn1)c1ccc(C(F)(F)F)cc1
Completion: 5.79

###

System: HT-29 colon cancer cell line
Assay: NCI five-dose testing
Assay type: cell-based
Settings: HT-29; read-out: TGI (total growth inhibition concentration)
Description: Screening against the cancer cell lines was carried out at the National Cancer Institute (NCI, Bethesda, Maryland, USA) applying the standard protocol of the NCI[22].
MEASUREMENT KIND: IC (TGI) (µM)
One number for each entry, in µM.

Below, 4 compounds whose answers are already recorded.
O=S(=O)(NCCNc1cc(-c2cn(-c3ccccc3)nc2-c2cccc(O)c2)ccn1)c1ccc(Br)cc1 [Compound 1k]; 5.0
O=S(=O)(NCCNc1cc(-c2cn(-c3ccccc3)nc2-c2cccc(O)c2)ccn1)c1ccc(Cl)cc1 [Compound 1l]; 5.2
O=S(=O)(NCCNc1cc(-c2cn(-c3ccccc3)nc2-c2cccc(O)c2)ccn1)c1ccc(F)cc1 [Compound 1m]; 47.9
O=S(=O)(NCCCNc1cc(-c2cn(-c3ccccc3)nc2-c2cccc(O)c2)ccn1)c1ccc(Cl)cc1 [Compound 2l]; 1.7

Now look at this one.
Prompt: Need IC (TGI), item COc1cccc(-c2nn(-c3ccccc3)cc2-c2ccnc(NCCNS(=O)(=O)c3ccc(Cl)cc3)c2)c1 [Compound 1c]
Completion: 11.3

###

system: SK-MEL-5 melanoma cell line; test: NCI five-dose testing; format: cell-based; details: Homo sapiens, SK-MEL-5; read-out: TGI (total growth inhibition concentration)
MEASUREMENT KIND: IC (TGI) (µM)
Answers are plain numbers, in µM.

O=S(=O)(NCCCNc1cc(-c2cn(-c3ccccc3)nc2-c2cccc(O)c2)ccn1)c1ccc(Br)cc1 [Compound 2k]; 2.6
O=S(=O)(NCCNc1cc(-c2cn(-c3ccccc3)nc2-c2cccc(O)c2)ccn1)c1ccc(C(F)(F)F)cc1 [Compound 1o]; 3.3
O=S(=O)(NCCCNc1cc(-c2cn(-c3ccccc3)nc2-c2cccc(O)c2)ccn1)c1cccc2ccccc12 [Compound 2q]; 3.4
COc1cccc(-c2nn(-c3ccccc3)cc2-c2ccnc(NCCNS(=O)(=O)c3ccc(C(F)(F)F)cc3)c2)c1 [Compound 1g]; 3.1
O=S(=O)(NCCCNc1cc(-c2cn(-c3ccccc3)nc2-c2cccc(O)c2)ccn1)c1ccc(C(F)(F)F)cc1 [Compound 2o]; 2.9
COc1cccc(-c2nn(-c3ccccc3)cc2-c2ccnc(NCCCNS(=O)(=O)c3ccc(C(F)(F)F)cc3)c2)c1 [Compound 2g]; 5
COc1cccc(-c2nn(-c3ccccc3)cc2-c2ccnc(NCCCNS(=O)(=O)c3cccc(F)c3)c2)c1 [Compound 2h]; 3.7

Prompt: Data request, read-out IC (TGI), for O=S(=O)(NCCCNc1cc(-c2cn(-c3ccccc3)nc2-c2cccc(O)c2)ccn1)c1ccc(F)cc1 [Compound 2m]
Completion: 10.1

###

system: A498 renal cancer cell line; assay: NCI five-dose testing; format: cell-based; details: Homo sapiens, A498
Could you please report measured IC50 for the items listed next?
Give bare numbers, in µM.

Sample answers from the record:
O=S(=O)(NCCCNc1cc(-c2cn(-c3ccccc3)nc2-c2cccc(O)c2)ccn1)c1ccc(C(F)(F)F)cc1; 1.09
COc1cccc(-c2nn(-c3ccccc3)cc2-c2ccnc(NCCCNS(=O)(=O)c3ccc(C(F)(F)F)cc3)c2)c1; 3.8
COc1cccc(-c2nn(-c3ccccc3)cc2-c2ccnc(NCCCNS(=O)(=O)c3cccc(F)c3)c2)c1; 3.52

Prompt: Any idea what its IC50 is? The molecule is COc1cccc(-c2nn(-c3ccccc3)cc2-c2ccnc(NCCNS(=O)(=O)c3ccc(C(F)(F)F)cc3)c2)c1
Completion: 3.4

###

tested on: U251 CNS cancer cell line; assay: NCI five-dose testing; type: cell-based; conditions: U251
Assignment: determine reported LD50 (lethal dose 50) for the given compounds.
One number for each entry, in µM.

O=S(=O)(NCCNc1cc(-c2cn(-c3ccccc3)nc2-c2cccc(O)c2)ccn1)c1ccc(Br)cc1; 25.6
O=S(=O)(NCCCNc1cc(-c2cn(-c3ccccc3)nc2-c2cccc(O)c2)ccn1)c1ccc(Cl)cc1; 8.8
O=S(=O)(NCCNc1cc(-c2cn(-c3ccccc3)nc2-c2cccc(O)c2)ccn1)c1ccc(F)cc1; 50.9

Prompt: For U251 CNS cancer cell line, provide LD50 (lethal dose 50) of O=S(=O)(NCCNc1cc(-c2cn(-c3ccccc3)nc2-c2cccc(O)c2)ccn1)c1ccc(Cl)cc1 please.
Completion: 45.9

###

target: RAF1 (Homo sapiens, UniProt P04049)
Sequence (P04049 whole entry): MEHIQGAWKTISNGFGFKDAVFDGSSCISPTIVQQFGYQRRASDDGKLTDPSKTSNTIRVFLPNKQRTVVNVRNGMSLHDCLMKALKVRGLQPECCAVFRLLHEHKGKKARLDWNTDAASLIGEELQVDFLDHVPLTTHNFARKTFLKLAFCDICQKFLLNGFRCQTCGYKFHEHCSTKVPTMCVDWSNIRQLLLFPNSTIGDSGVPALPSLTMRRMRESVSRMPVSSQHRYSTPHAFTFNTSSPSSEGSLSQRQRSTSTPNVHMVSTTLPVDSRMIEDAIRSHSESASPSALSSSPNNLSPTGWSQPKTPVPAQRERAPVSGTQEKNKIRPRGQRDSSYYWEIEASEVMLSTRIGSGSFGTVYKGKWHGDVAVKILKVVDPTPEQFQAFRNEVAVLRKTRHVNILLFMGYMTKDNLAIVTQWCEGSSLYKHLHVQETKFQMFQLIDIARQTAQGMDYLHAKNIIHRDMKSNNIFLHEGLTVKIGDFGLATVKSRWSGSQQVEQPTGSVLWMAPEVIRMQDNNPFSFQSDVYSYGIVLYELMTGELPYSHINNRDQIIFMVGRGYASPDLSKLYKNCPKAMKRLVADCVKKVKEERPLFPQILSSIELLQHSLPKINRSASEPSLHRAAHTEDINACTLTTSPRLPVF
MEASUREMENT KIND: IC50 (µM)
One number for each entry, in µM.

Prompt: Form field - read-out: IC50; system: RAF1 (Homo sapiens, UniProt P04049); submitted item: O=S(=O)(NCCCNc1cc(-c2cn(-c3ccccc3)nc2-c2cccc(O)c2)ccn1)c1ccc(Cl)cc1
Completion: 3.52

###

Could you please report measured LC50 (lethal concentration 50) for the items listed next?
system: PC-3 prostate cancer cell line; test: NCI five-dose testing; assay type: cell-based; details: Homo sapiens, PC-3, read-out: LD50 (lethal dose 50)

Need LC50 (lethal concentration 50) for each of these compounds.
1. O=S(=O)(NCCCNc1cc(-c2cn(-c3ccccc3)nc2-c2cccc(O)c2)ccn1)c1ccc(C(F)(F)F)cc1 [Compound 2o]
2. O=S(=O)(NCCCNc1cc(-c2cn(-c3ccccc3)nc2-c2cccc(O)c2)ccn1)c1cccc2ccccc12 [Compound 2q]
3. COc1cccc(-c2nn(-c3ccccc3)cc2-c2ccnc(NCCNS(=O)(=O)c3ccc(C(F)(F)F)cc3)c2)c1 [Compound 1g]
4. O=S(=O)(NCCNc1cc(-c2cn(-c3ccccc3)nc2-c2cccc(O)c2)ccn1)c1ccc(C(F)(F)F)cc1 [Compound 1o]

Completion:
18.9 µM
> 100 µM
> 100 µM
93.4 µM
